Parameter IC50: see the listing below.
# Assayed target: GSK3α (Homo sapiens, UniProt P49840)
# Sequence (P49840 whole entry): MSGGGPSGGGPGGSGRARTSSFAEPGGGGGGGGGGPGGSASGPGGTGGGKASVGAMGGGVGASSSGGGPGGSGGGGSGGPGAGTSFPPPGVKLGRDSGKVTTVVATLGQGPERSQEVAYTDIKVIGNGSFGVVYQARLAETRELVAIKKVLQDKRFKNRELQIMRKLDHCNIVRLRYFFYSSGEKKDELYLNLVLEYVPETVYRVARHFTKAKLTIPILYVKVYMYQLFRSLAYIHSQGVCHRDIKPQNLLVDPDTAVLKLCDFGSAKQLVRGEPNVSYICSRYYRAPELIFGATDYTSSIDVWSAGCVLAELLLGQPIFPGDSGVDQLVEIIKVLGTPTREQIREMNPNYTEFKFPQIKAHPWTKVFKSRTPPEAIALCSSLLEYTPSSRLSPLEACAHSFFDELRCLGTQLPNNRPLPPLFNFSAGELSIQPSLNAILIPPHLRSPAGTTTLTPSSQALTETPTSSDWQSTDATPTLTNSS
# Test details: GSK3α in vitro enzymatic assay (Kinase-Glo Max luminescence)
# Measurement conditions: recombinant human GSK3, 10 μM ATP; approximate values; read-out: Potency GSK3alpha
Write the answer as a number in nM, unit excluded.

1) CCn1cc(C(=O)O)c(=O)c2c(N)c(F)c(NC3CN(c4ccccc4)C3)cc21 [Compound I-69] : 61

Shifting focus to the compound that follows.
Exercise: Given the entry CCn1cc(C(=O)O)c(=O)c2c(N)c(F)c(NCCN[C@@H]3C[C@]34CCc3ccccc34)cc21 (relative stereo) [Compound I-81] , report its measured IC50.
Solution: 457
